target-entity: c-kit (Homo sapiens, UniProt P10721)
Construct: MO7e (human megakaryocytic leukemia cell line) which had been arrested for 20 hr; endogenous in cells; host or cells: MO7e human megakaryocytic leukemia cell line
Sequence (P10721 26-976): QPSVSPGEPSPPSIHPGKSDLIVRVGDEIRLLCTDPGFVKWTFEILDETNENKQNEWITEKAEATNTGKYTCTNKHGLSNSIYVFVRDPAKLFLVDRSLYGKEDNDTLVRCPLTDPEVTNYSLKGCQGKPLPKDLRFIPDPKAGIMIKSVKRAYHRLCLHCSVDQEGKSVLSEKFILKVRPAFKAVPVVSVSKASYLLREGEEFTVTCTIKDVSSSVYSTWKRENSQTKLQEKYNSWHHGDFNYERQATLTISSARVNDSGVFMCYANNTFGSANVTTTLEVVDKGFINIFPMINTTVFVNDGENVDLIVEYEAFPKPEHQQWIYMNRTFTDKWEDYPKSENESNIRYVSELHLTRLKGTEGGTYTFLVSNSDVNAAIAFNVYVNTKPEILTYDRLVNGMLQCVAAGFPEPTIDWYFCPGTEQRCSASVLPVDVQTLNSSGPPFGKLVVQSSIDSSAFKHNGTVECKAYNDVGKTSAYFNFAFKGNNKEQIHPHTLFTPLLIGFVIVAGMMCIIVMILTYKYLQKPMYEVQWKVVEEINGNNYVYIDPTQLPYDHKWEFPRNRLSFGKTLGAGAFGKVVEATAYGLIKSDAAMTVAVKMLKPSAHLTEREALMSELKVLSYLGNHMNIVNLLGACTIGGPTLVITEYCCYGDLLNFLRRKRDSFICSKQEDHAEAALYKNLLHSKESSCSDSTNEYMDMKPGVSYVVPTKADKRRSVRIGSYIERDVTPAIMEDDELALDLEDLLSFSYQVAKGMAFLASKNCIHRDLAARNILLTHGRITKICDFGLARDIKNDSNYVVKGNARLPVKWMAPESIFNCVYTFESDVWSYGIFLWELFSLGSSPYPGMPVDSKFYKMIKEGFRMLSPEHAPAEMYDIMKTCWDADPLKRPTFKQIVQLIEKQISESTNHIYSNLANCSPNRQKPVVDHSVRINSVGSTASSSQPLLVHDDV
procedure-text: Inhibitory activity against c-kit autophosphorylation (MO7e cells, h-SCF)
Format: cell-based
settings: MO7e cells, h-SCF stimulation; read-out: c-kit IC50
endpoint: IC50 (µM)
The response must be a number in µM with no trailing unit.

Examples with answers:
{"compound": "COc1cc2nccc(Oc3ccc(NCCOc4ccccc4OC)cc3C)c2cc1OC [Example 880]", "display-unit": "µM", "IC50": 0.149}
{"compound": "COc1cc2nccc(Oc3ccc(NC(=S)NC(=O)c4cccc(C)c4C)cc3Cl)c2cc1OC [Example 1018]", "display-unit": "µM", "IC50": 0.32}
{"compound": "COc1ccc(C(=O)NC(=S)Nc2ccc(Oc3ccnc4cc(OC)c(OC)cc34)c(F)c2)c(OC)c1 [Example 1113]", "display-unit": "µM", "IC50": 0.785}

(Q) Give the value of IC50 reported for the following: COc1cc2nccc(Oc3ccc(SCCOc4cccc(Cl)c4)cc3)c2cc1OC [Example 820]
(A) 0.187

(Q) Give the value of IC50 reported for the following: CCCC1CCC(C(=O)NC(=S)Nc2ccc(Oc3ccnc4cc(OC)c(OC)cc34)c(Cl)c2)CC1 (stereo not drawn) [Example 1196]
(A) 0.7

(Q) Give the value of IC50 reported for the following: CCN(CC)C(=O)NC(=S)Nc1ccc(Oc2ccnc3cc(OC)c(OC)cc23)c(Cl)c1 [Example 1048]
(A) 0.25

(Q) Give the value of IC50 reported for the following: COc1ccc(C(=O)NC(=S)Nc2ccc(Oc3ccnc4cc(OC)c(OC)cc34)cc2)cc1OC [Example 1010]
(A) 0.078

(Q) Give the value of IC50 reported for the following: CCc1ccccc1OCCNc1ccc(Oc2ccnc3cc(OC)c(OC)cc23)cc1 [Example 861]
(A) 0.132

(Q) Give the value of IC50 reported for the following: COc1cc2nccc(Oc3ccc(NC(=S)NC(=O)C4CCCCC4)cc3)c2cc1OC [Example 1062]
(A) 0.233

(Q) Give the value of IC50 reported for the following: COc1cc2nccc(Oc3ccc(NC(=S)NC(=O)c4ccccc4Br)cc3)c2cc1OC [Example 900]
(A) 0.372

Just for reference, patent US7135466B2 is where these values come from.
